- Test Description: qHTS for identification of novel therapeutic agents for treatment of microphthalmiaassociated transcription factor (MiT) renal cell carcinoma (RCC) (AID 1963991);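 further: curves scaled with 100% = DMSO viability and 0% = empty wells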
- Setup Conditions: TFE3-RCC viability, CellTiter-Glo, 48 h; measured here: UOK145 Z-AUC; stronger effect = lower value
Results filed as inconclusive are left out.
Measurement Type: z-score
API note: the answer field is a bare number with no unit suffix.

So, CC(C)Oc1ccc2c(=O)c(-c3ccccc3)coc2c1 ? Its z-score was -0.312

For reference, reported z-score for CN1C(C(=O)Nc2ccccn2)=C(O)c2sccc2S1(=O)=O stands at 0.557

Measured z-score, CCOC(=O)C1=C[C@@H](OC(CC)CC)[C@H](NC(C)=O)[C@@H](N)C1 : 0.414

The recorded z-score for CC(C)(S)[C@@H](N)C(=O)O is 1.37

Entry COc1c(O)cc2c(c1O)[C@@H]1O[C@H](CO)[C@@H](O)[C@H](O)[C@H]1OC2=O ; z-score = -0.262

z-score reported for this molecule CC(C)c1ccc2oc3nc(N)c(C(=O)O)cc3c(=O)c2c1 : 0.404

Form: molecule = C=C(c1ccc(C(=O)O)cc1)c1cc2c(cc1C)C(C)(C)CCC2(C)C ; z-score = -0.306

What the record says about C[C@H](Cn1cnc2c(N)ncnc21)OCP(=O)(O)O : z-score is 0.62

# z-score (molecule: Cc1cc2c(s1)Nc1ccccc1N=C2N1CCN(C)CC1 ) is 0.593

----------
- Test Description: Natriuretic polypeptide receptor (hNpr1) antagonism - Pilot counterscreen GloSensor control cell line (AID 1347045)
- Setup Conditions: HEK293 cGMP GloSensor cells, SNP-stimulated luminescence, 20 min; series mostly up to 38.3 µM
Results filed as inconclusive are left out. Active and inactive are the calls of the source. The call rests on the fitted dose curve.
Returns: one label drawn from active, inactive

Request: // return assay outcome for NC(=NCc1ccccc1)NC(=O)c1nc(Cl)c(N)nc1N
Response: inactive

Request: Please share the test call associated with O=C(c1ccccc1)c1ccc2n1CCC2C(=O)O (stereo not given) .
Response: inactive

Request: // param item: Oc1ccc(-c2nc(-c3ccc(F)cc3)c(-c3ccncc3)[nH]2)cc1 ; yields the recorded call
Response: inactive

Request: Short answer needed: outcome of this test for OC(CN1CCN(c2cccc(Cl)c2)CC1)C(c1ccccc1)c1ccccc1 (stereo not given) ?
Response: inactive

Request: Write down the call the test reported for this compound. Item: O=c1ccc2ccc(O)c(O)c2o1
Response: inactive

Request: // outcome(item) with item = CC(C)c1ccc2c(c1)c(SC(C)(C)C)c(CC(C)(C)C(=O)O)n2Cc1ccc(Cl)cc1
Response: active

Request: Could you please tell me the result logged for O=C1NC(=O)C(c2ccccc2[N+](=O)[O-])=C1Nc1ccc(O)c(Cl)c1 in this assay?
Response: inactive

Request: What is the recorded call for this compound in the test? NCCCCNCCCN
Response: inactive

Request: Answer briefly: the call reported for CCN(CC)C(=S)SSC(=S)N(CC)CC in this assay.
Response: active

Request: Just curious, what result did CC(=O)O[C@H]1C(=O)[C@@]2(C)C([C@H](OC(=O)c3ccccc3)[C@]3(O)C[C@H](OC(=O)[C@H](O)[C@@H](NC(=O)c4ccccc4)c4ccccc4)C(C)=C1C3(C)C)[C@]1(OC(C)=O)CO[C@@H]1C[C@@H]2O (stereo not given in full) get here?
Response: inactive
